Cited source for all entries: paper PMC7587356

Provide the recorded Replicate_2 for the entries that follow.
systemName: SARS-CoV-2 3CLpro (Severe acute respiratory syndrome coronavirus 2)
assayDetails: biochemical
Format: biochemical
Parameters: unit not given here
conditionLabel: sheet LOPAC_screen_w_protease; LOPAC1280 at 5 µM; replicate 2
One number for each entry.

## Task Please indicate recorded Replicate_2 of CNC(=O)c1cc2c(cn1)[nH]c1ccccc12 [N-Methyl-beta-carboline-3-carboxamide] measured with SARS-CoV-2 3CLpro (Severe acute respiratory syndrome coronavirus 2).
## Result 0.4701

For each entry beneath this line, provide reported Replicate_2.
1. CNc1cc(NS(=O)(=O)c2ccc(N)cc2)nc(NC)n1.Cl.Cl [Ro 04-6790 dihydrochloride]
2. NC(=O)C1=CN([C@@H]2O[C@H](COP(=O)([O-])OP(=O)([O-])OC[C@H]3O[C@@H](n4cnc5c(N)ncnc54)[C@H](OP(=O)([O-])[O-])[C@@H]3O)[C@@H](O)[C@H]2O)C=CC1.[Na+].[Na+].[Na+].[Na+] [NADPH tetrasodium]

## Result
2.45
0.6031
